Recorded z-score values for a group of molecules are listed next.
Experiment: S. cerevisiae RM11-1a growth modifiers, primary screen, strain RM11-1a, OD600, basal, 24 h (AID 1177);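 note: cultures grown under basal conditions with no added stressor; test concentration not given here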
Details: OD600, 24 h, higher = more signal, called active from +8 up or from −8 down
Active and inactive are the calls of the source.
readoutName: z-score

[[record]]
molecule = "Cc1ccc(S[C@]2(C(=O)NC3CC3)CC(=O)N(Cc3ccccc3)[C@@H]2c2ccc(CO)cc2I)cc1"
reportedresult = "-1.46 (inactive)"

[[record]]
molecule = "COC(=O)[C@@]1(Cc2ccc(F)cc2)[C@H]2c3cc(C(=O)N(C)C)n(Cc4ccc(Cl)c(C(F)(F)F)c4)c3C[C@H]2CN1C(=O)c1ccccc1"
reportedresult = "-0.285 (inactive)"

[[record]]
molecule = "CC(=O)NCCCC[C@@H]1NC(=O)[C@H]2C[C@@H](C(=O)NCCCCCCNC(=O)CS)[C@@H](c3ccc(O)cc3)N2C1=O"
reportedresult = "0.518 (inactive)"

[[record]]
molecule = "CC(C)=CCN[C@H](CO)c1ccccc1"
reportedresult = "-0.17 (inactive)"

[[record]]
molecule = "C=C(CC1([C@@H](NP(=O)(c2ccccc2)c2ccccc2)[C@H]2C[C@@H]2CCCC)CC1)c1ccccc1"
reportedresult = "0.753 (inactive)"

[[record]]
molecule = "O=C1C2C=CC(C(O)Cc3ccccc3)N(n3cnnc3)C2C(=O)N1Cc1ccccc1 (stereo not drawn)"
reportedresult = "0.656 (inactive)"

[[record]]
molecule = "COCCOC(=O)N1C(=O)[C@@]2(c3cc(C#Cc4ccc(OC)cc4)ccc31)[C@H](c1ccccc1OCCO)N1[C@H](c3ccccc3)[C@H](c3ccccc3)OC(=O)[C@H]1[C@@H]2C(=O)NC[C@H](O)c1ccccc1"
reportedresult = "3.17 (inactive)"

[[record]]
molecule = "COCCOC(=O)N1C(=O)[C@@]2(c3ccccc31)[C@H](C(=O)N1CCc3cc(OC)c(OC)cc3C1)[C@H]1C(=O)O[C@H](c3ccccc3)[C@H](c3ccccc3)N1[C@@H]2c1ccc(OCCO)cc1"
reportedresult = "2.61 (inactive)"

[[record]]
molecule = "COC(=O)C[C@H]1O[C@]2(C(=O)N(C)c3ccccc32)[C@@H](C)[C@@H]1[Si](C)(C)F"
reportedresult = "-2.64 (inactive)"

[[record]]
molecule = "COCCOC(=O)N1C(=O)[C@@]2(c3cc(C#CCC(C(=O)OC)C(=O)OC)ccc31)[C@H](c1ccccc1OCCO)N1[C@H](c3ccccc3)[C@H](c3ccccc3)OC(=O)[C@H]1[C@@H]2C(=O)N1CCN(c2ncccn2)CC1"
reportedresult = "3.19 (inactive)"

[[record]]
molecule = "C=C(COC)/C(=C/C[C@H](OC(C)=O)c1ccc(CO)o1)c1cc(C(=O)OC)ccc1OC"
reportedresult = "-0.253 (inactive)"

[[record]]
molecule = "O=C(NCCO)C1=C[C@H](Oc2ccccc2I)[C@@H](O)[C@H](N(Cc2ccco2)C(=O)Cc2ccccc2)C1"
reportedresult = "0.552 (inactive)"

[[record]]
molecule = "CCC(CC)C(O)C1C=CC2C(=O)NC(=O)C2N1Nc1ccccn1 (stereo not drawn)"
reportedresult = "0.469 (inactive)"

[[record]]
molecule = "CC(C)NC(=O)[C@@]1(C)c2ccccc2C(=O)N(Cc2cc(C(F)(F)F)cc(C(F)(F)F)c2)[C@H]1c1ccc(CO)cc1"
reportedresult = "0.784 (inactive)"

[[record]]
molecule = "COc1ccc(C#Cc2ccc3c(c2)[C@]2(C(=O)N3)[C@H](C(=O)Nc3nc4ccccc4s3)[C@H]3C(=O)O[C@H](c4ccccc4)[C@H](c4ccccc4)N3[C@@H]2c2ccc(O)cc2)cc1"
reportedresult = "1.15 (inactive)"

[[record]]
molecule = "C=CC1(C(=O)OC)CC=C(C(=O)OC)CC1 (stereo not drawn)"
reportedresult = "-0.834 (inactive)"

[[record]]
molecule = "COC(=O)[C@@]1(Cc2ccc(F)cc2)[C@H]2c3cc(C(=O)N4CCCC4)n(Cc4ccc(S(C)(=O)=O)cc4)c3C[C@H]2CN1C(=O)c1ccccc1"
reportedresult = "0.458 (inactive)"

[[record]]
molecule = "CC(C)=CCCC(C)=CC(O)C1C=CC2C(=O)N(C)C(=O)C2N1Nc1ccccc1 (stereo not drawn)"
reportedresult = "0.938 (inactive)"

[[record]]
molecule = "CN1C=C(C(=O)OCCS(C)(=O)=O)C(C(=O)OCCS(C)(=O)=O)=CC(c2ccc(CO)cc2)=CC1C1CC1 (stereo not drawn)"
reportedresult = "0.0635 (inactive)"

[[record]]
molecule = "CN(C)C(=O)[C@]1(Cc2ccccc2N=[N+]=[N-])N=C(c2ccc(OCCCO)cc2)O[C@@H]1c1ccccc1N=[N+]=[N-]"
reportedresult = "0.667 (inactive)"

[[record]]
molecule = "CC#CC(=O)Oc1ccccc1C=CC(=O)OCC"
reportedresult = "-1.34 (inactive)"

[[record]]
molecule = "C=CCC(OC(C)=O)[C@@H]1[C@@H](N(Cc2ccc(-c3cccc(C(F)(F)F)c3)o2)C(=O)c2ccc(C)cc2)c2cc(OCCCO)ccc2N1C(=O)Cc1ccc2ccccc2c1 (stereo partly drawn)"
reportedresult = "0.476 (inactive)"

[[record]]
molecule = "O=C1c2ccccc2[C@](Cc2ccccc2I)(C(=O)NCC(F)(F)F)[C@H](c2ccc(CO)cc2)N1Cc1ccccc1Cl"
reportedresult = "-0.838 (inactive)"

